# Method: amyloid nucleation score (Sup35N fusion, yeast selection) (log enrichment); library NNK1; higher = more nucleation; inactive = no reads after selection;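 further: zero at mode of non-aggregating sequences after 7 days selection at 30°C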
Quantity: amyloid nucleation score

INSERT INTO measurements (sequence_record, quantity, result_value) VALUES
  ('RNCFMGRTVNSVSNYVESSW', 'amyloid nucleation score', 'inactive'),
  ('WVCRSISPLVRTSLPRYWRN', 'amyloid nucleation score', 'inactive'),
  ('FPSLNNVNPSGFCSISSFRG', 'amyloid nucleation score', 'inactive');

* * *

# Method: amyloid nucleation score (Sup35N fusion, yeast selection) (log enrichment); library NNK2; higher = more nucleation; inactive = no reads after selection
Quantity: amyloid nucleation score

INSERT INTO assay_data (substance, result_value) VALUES
  ('DACYGITLDCCETLARSMSC', -0.382),
  ('QKNTSQCFVLSW', 0.129),
  ('TMIKSQMLYFSGLATRLRLG', 0.098);
